target: Plasminogen (Homo sapiens); assay: Inhibition of human plasmin using Ac-RM(O2)YR-pNA as substrate after 30 mins
Sequence (P00747 97-580 limits assumed): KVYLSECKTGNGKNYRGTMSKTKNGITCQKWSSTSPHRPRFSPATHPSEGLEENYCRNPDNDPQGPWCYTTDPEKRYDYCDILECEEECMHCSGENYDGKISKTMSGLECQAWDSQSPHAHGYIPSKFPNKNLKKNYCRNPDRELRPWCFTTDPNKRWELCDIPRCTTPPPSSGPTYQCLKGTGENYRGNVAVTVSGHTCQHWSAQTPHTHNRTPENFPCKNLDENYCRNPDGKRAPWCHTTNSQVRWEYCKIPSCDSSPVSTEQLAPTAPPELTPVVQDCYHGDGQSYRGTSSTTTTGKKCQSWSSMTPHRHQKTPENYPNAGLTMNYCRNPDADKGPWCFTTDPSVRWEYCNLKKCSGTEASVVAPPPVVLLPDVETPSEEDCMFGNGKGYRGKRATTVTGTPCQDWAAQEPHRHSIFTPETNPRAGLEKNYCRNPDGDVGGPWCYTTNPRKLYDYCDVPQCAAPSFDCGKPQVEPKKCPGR
Sequence (P00747 581-810 limits assumed): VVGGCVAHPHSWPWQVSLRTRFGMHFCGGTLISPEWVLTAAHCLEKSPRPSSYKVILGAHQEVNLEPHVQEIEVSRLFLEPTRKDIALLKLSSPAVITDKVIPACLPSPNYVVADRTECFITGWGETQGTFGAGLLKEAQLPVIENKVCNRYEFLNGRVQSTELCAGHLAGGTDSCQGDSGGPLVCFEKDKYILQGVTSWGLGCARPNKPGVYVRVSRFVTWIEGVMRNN
Residues, ends and D or L forms follow the SMILES beside them.
Parameter Measured: pKi
FYI, pKi means -log10 of a concentration in mol per litre.

molecule="N=C(N)NCCC[C@@H]1NC(=O)CNC(=O)[C@H](CC(=O)O)NC(=O)[C@@H]2CCCN2C(=O)[C@H](Cc2ccccc2)NC(=O)[C@@H]2CSSC[C@H](NC1=O)C(=O)N[C@@H](Cc1ccc(O)cc1)C(=O)N[C@@H](CCCCN)C(=O)N[C@@H](CO)C(=O)N[C@@H](CCCCN)C(=O)N1CCC[C@H]1C(=O)N1CCC[C@H]1C(=O)N[C@@H](CC(N)=O)C(=O)N2 (HELM PEPTIDE1{C.F.P.D.G.R.C.Y.K.S.K.P.P.N}$PEPTIDE1,PEPTIDE1,1:R3-7:R3|PEPTIDE1,PEPTIDE1,1:R1-14:R2$$$V2.0)" parameter_measured=pKi observed=9.18

The recorded pKi with Plasminogen (Homo sapiens) for CC[C@H](C)[C@@H]1NC(=O)[C@@H]2CCCN2C(=O)[C@@H]2CCCN2C(=O)[C@H](CCCNC(=N)N)NC(=O)[C@H](CO)NC(=O)[C@H](CCCCN)NC(=O)[C@H](Cc2ccc(O)cc2)NC(=O)[C@@H]2CSSC[C@H](NC1=O)C(=O)N[C@@H](Cc1ccccc1)C(=O)N1CCC[C@H]1C(=O)N[C@@H](CCC(=O)O)C(=O)NCC(=O)NC(CCCCNC(=N)N)C(=O)N2 (some centres not stated) (HELM PEPTIDE1{C.F.P.E.G.[N=C(N)NCCCCC(N[*:1])C(=O)[*:2]].C.Y.K.S.R.P.P.I}$PEPTIDE1,PEPTIDE1,1:R3-7:R3|PEPTIDE1,PEPTIDE1,1:R1-14:R2$$$V2.0) was 8.96
